Biological target: CETP (Homo sapiens)
Assay: Assay of CETP Inhibition using Purified Components (Reconstituted Buffer Assay)
Format: biochemical
Design: made in house; host or cells: CHO cells (serum-free conditioned medium)
Conditions: Inhibition of CETP activity in reconstituted buffer assay; transfer of [3H]CE from HDL to LDL; read-out: IC50
pIC50: −log10 of the molar value.
OBSERVED_PROPERTY: pIC50

I = COc1ccc(-c2cccc(N(Cc3cccc(OC(F)(F)C(F)F)c3)CC(O)C(F)(F)F)c2)cc1C (centres unmarked)
II = N#CCCCOc1cccc(N(Cc2cccc(OC(F)(F)C(F)F)c2)CC(O)C(F)(F)F)c1 (centres unmarked)
III = CCNc1ccc(Oc2cccc(N(Cc3cccc(OC(F)(F)C(F)F)c3)CC(O)C(F)(F)F)c2)cc1 (centres unmarked) [Example 450B]
IV = OC(CN(Cc1cccc(Oc2ccc(Cl)c(Cl)c2)c1)c1cccc(Oc2ccccc2)c1)C(F)(F)F (centres unmarked)
Asked: Provide the items ranked by increasing pIC50. Response field: labels, in requested order.
Given back: IV, II, I, III

---

Target: CETP (Homo sapiens, UniProt P11597)
Sequence (P11597 18-493): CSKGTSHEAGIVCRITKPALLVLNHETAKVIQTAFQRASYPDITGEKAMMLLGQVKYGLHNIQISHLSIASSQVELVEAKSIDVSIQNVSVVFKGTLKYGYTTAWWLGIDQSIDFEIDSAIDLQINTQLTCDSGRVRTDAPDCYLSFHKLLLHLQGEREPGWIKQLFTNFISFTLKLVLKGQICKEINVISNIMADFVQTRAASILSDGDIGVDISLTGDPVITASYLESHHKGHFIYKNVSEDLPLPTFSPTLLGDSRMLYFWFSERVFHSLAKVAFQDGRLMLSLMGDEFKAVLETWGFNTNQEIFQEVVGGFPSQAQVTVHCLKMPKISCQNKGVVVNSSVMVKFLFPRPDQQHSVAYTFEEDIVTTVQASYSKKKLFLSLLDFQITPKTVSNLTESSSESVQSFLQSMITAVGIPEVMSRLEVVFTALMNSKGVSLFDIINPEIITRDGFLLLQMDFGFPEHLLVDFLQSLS
Assay: Assay of CETP Inhibition in Human Plasma
Type: biochemical
Parameters: Blood was obtained from healthy volunteers, recruited from the personnel of Monsanto Company; from tissue; host or cells: human EDTA plasma pool from healthy volunteers
Details: Inhibition of CETP activity in human plasma assay; transfer of [3H]CE from HDL to VLDL and LDL; read-out: IC50
pIC50: −log10 of the molar value.
OBSERVED_PROPERTY: pIC50

See these solved cases before continuing.
| COMPOUND | pIC50 |
| --- | --- |
| COc1ccc(Nc2cccc(N(Cc3cccc(OC(F)(F)C(F)F)c3)CC(O)C(F)(F)F)c2)cc1 (stereo not drawn) [Example 292] | 4.42 |
| O=S(=O)(c1ccccc1)c1cccc(N(Cc2cccc(OC(F)(F)C(F)F)c2)CC(O)C(F)(F)F)c1 (stereo not drawn) [compound 218] | 4.51 |
| OC(CN(Cc1cccc(OC(F)(F)C(F)F)c1)c1cccc(F)c1)C(F)(F)F (stereo not drawn) [Example 43] | 3.96 |

I = OC(CN(Cc1cccc(OC(F)(F)C(F)F)c1)c1cccc(OCc2cccc(I)c2)c1)C(F)(F)F (stereo not drawn) [Example 405]
II = COc1cccc(Nc2cccc(N(Cc3cccc(OC(F)(F)C(F)F)c3)CC(O)C(F)(F)F)c2)c1 (stereo not drawn) [Example 305]
III = OC(CN(Cc1cccc(OC(F)(F)F)c1)c1cccc(OCc2ccccc2)c1)C(F)(F)F (stereo not drawn) [Example 126]
IV = O=[N+]([O-])c1ccccc1Oc1cccc(N(Cc2cccc(OC(F)(F)C(F)F)c2)CC(O)C(F)(F)F)c1 (stereo not drawn) [Example 436]
Asked: # desc sort on pIC50 across 4 compounds Response field: labels, in requested order.
Given back: I, IV, III, II
